pKd for assorted compounds
biological target: GDP-bound KRAS wild-type protein (Homo sapiens); assay: Binding to KRAS by surface plasmon resonance (SPR), Single Cycle Kinetics; conditions: SPR, Single Cycle Kinetics, GDP-bound KRAS wild-type protein; read-out: KRAS KD
Sequence (P01116 whole entry): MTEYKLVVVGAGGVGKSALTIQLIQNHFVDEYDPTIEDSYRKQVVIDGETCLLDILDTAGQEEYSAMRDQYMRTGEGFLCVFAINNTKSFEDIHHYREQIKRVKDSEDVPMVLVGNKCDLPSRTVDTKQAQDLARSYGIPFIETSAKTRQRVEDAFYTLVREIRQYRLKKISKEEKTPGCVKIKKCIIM
A value of pKd is the negative decimal logarithm of a concentration given in moles per litre.

For orientation, consider the following solved cases.
Compound: CCCN(C)C(=O)[C@@H]1CC(=O)N(C)[C@@H](COC)C(=O)N[C@@H]([C@@H](C)CC)C(=O)N(C)CC(=O)N(C)[C@H]2C/C=C\CCN(C2=O)[C@@H](Cc2ccc(C(F)(F)F)cc2)C(=O)N(C)CC(=O)N[C@@H](CCc2cc(F)c(C(F)(F)F)c(F)c2)C(=O)N2C[C@H](OCC)C[C@H]2C(=O)NC2(CCC2)C(=O)N(C)[C@@H](C2CCCC2)C(=O)N1C [PP1706]
pKd: 10.12

Compound: CC[C@H](C)[C@@H]1NC(=O)[C@H](COC)N(C)C(=O)C[C@@H](C(=O)N2CCOCC2)N(C)C(=O)[C@H](C2CCCC2)N(C)C(=O)C2(CCC2)NC(=O)[C@@H]2CCN2C(=O)[C@H](CCc2cc(F)c(C(F)(F)F)c(F)c2)NC(=O)CN(C)C(=O)[C@H](Cc2ccc(C(F)(F)F)cc2)N2CCCCC[C@@H](C2=O)N(C)C(=O)CN(C)C1=O [PP0840]
pKd: 8.30

Compound: CC[C@H](C)[C@@H]1NC(=O)[C@H](CC)N(C)C(=O)C[C@@H](C(=O)N(C)C)N(CC)C(=O)[C@H](C2CCCC2)N(C)C(=O)C2(CCC2)NC(=O)[C@@H]2CCCN2C(=O)[C@H](CCc2cc(F)c(C(F)(F)F)c(F)c2)NC(=O)CN(C)C(=O)[C@H](Cc2ccc(C(F)(F)F)cc2)N2CC/C=C\C[C@@H](C2=O)N(C)C(=O)CN(C)C1=O [PP1106]
pKd: 9.09

Compound: CC[C@H](C)[C@@H]1NC(=O)[C@H](COC)N(C)C(=O)C[C@@H](C(=O)N(C)C)N(C)C(=O)[C@H](C2CCCC2)N(C)C(=O)C2(CC(C)(C)C2)NC(=O)[C@@H]2C[C@@H](OC(C)C)CN2C(=O)[C@H](CCc2ccc(Cl)c(Cl)c2)NC(=O)CN(C)C(=O)[C@H](CC2CCCCC2)N2CC/C=C\C[C@@H](C2=O)N(C)C(=O)CN(C2CC2)C1=O [PP2513]
pKd: 8.59

Compound: CCOC[C@H]1C(=O)N[C@@H]([C@@H](C)CC)C(=O)N(C)CC(=O)N(C)[C@H]2C/C=C\CCN(C2=O)[C@@H](Cc2ccc(C)cc2)C(=O)N(C)CC(=O)N[C@@H](CCc2ccc(C(F)(F)F)c(OC)c2)C(=O)N2C[C@@H](C)C[C@H]2C(=O)NC2(CC(C)(C)C2)C(=O)N(C)[C@@H](C2CCCC2)C(=O)N(C)[C@H](C(=O)N(C)C)CC(=O)N1C [PP2505]
pKd: 9.89

Compound: CCO[C@@H]1C[C@H]2C(=O)NC3(CC(C)(C)C3)C(=O)N(C)[C@@H](C(CC)CC)C(=O)N(C)[C@H](C(=O)N(C)C)CC(=O)N(C)[C@@H](CC3CC3)C(=O)N[C@@H]([C@@H](C)CC)C(=O)N(C)CC(=O)N(C)[C@H]3C/C=C\CCN(C3=O)[C@@H](CC3CCC(F)(F)CC3)C(=O)N(C)CC(=O)N[C@@H](CCc3ccc(C(F)(F)F)c(Cl)c3)C(=O)N2C1 [PP2495]
pKd: 9.08

Compound: CC[C@H](C)[C@@H]1NC(=O)[C@H](CC)N(C)C(=O)C[C@@H](C(=O)N(C)CC)N(C)C(=O)[C@H](C2CCCC2)N(C)C(=O)C2(CCC2)NC(=O)[C@@H]2C[C@@H](C)CN2C(=O)[C@H](CCc2ccc(C(F)(F)F)c(OC)c2)NC(=O)CN(C)C(=O)[C@H](Cc2ccc(C)cc2)N2CC/C=C\C[C@@H](C2=O)N(C)C(=O)CN(C)C1=O [PP1855]
pKd: 9.72

Compound: CCO[C@@H]1C[C@H]2C(=O)NC3(CCC3)C(=O)N(C)[C@@H](C(CC)CC)C(=O)N(C)[C@H](C(=O)N3CCCC3)CC(=O)N(C)[C@H]3CCC/C=C/c4ccc(cc4)C[C@@H](C(=O)N(C)CC(=O)N[C@@H](CCc4ccc(Cl)c(Cl)c4)C(=O)N2C1)N1CC/C=C\C[C@@H](C1=O)N(C)C(=O)CN(C1CC1)C(=O)[C@H]([C@@H](C)CC)NC3=O [PP3040]
pKd: 9.54

Compound: CC[C@H](C)[C@@H]1NC(=O)[C@H](CC(C)C)N(C)C(=O)C[C@@H](C(=O)N(C)CC)N(C)C(=O)[C@H](C2CCCC2)N(C)C(=O)C2(CC(C)(C)C2)NC(=O)[C@@H]2C[C@H](C)CN2C(=O)[C@H](CCc2cc(F)c(C(F)(F)F)c(F)c2)NC(=O)CN(C)C(=O)[C@H](Cc2ccc(C)cc2)N2CC/C=C\C[C@@H](C2=O)N(C)C(=O)[C@@H]2CCCN2C1=O [PP2411]
pKd: 9.00

Compound: CCO[C@@H]1C[C@H]2C(=O)NC3(CC(C)(C)C3)C(=O)N(C)[C@@H](C(CC)CC)C(=O)N(C)[C@H](C(=O)N(C)C)CC(=O)N(C)[C@@H](CC)C(=O)N[C@@H]([C@@H](C)CC)C(=O)N(C)CC(=O)N(C)[C@H]3C/C=C\CCN(C3=O)[C@@H](Cc3ccc(C)cc3)C(=O)N(C)CC(=O)N[C@@H](CCc3ccc(Cl)c(Cl)c3)C(=O)N2C1 [PP2188]
pKd: 9.15

Please find the next compound below.
For this compound ( CCO[C@@H]1C[C@H]2C(=O)NC3(CC(C)(C)C3)C(=O)N(C)[C@@H](C(CC)CC)C(=O)N(C)[C@H](C(=O)N(C)C)CC(=O)N(C)[C@@H](CC3CCC3)C(=O)N[C@@H]([C@@H](C)CC)C(=O)N(C)CC(=O)N(C)[C@H]3C/C=C\CCN(C3=O)[C@@H](Cc3ccc(C)cc3)C(=O)N(C)CC(=O)N[C@@H](CCc3ccc(Cl)c(Cl)c3)C(=O)N2C1 [PP2120] ), measured pKd is 9.04

Provenance of the data: patent US20240158446A1
